- Test system: Escherichia coli TOP10
- assay_summary: shrunken log2 fold change of peptide-encoding DNA abundance (4.5 h post-induction vs induction); higher = less antimicrobial activity (less host growth inhibition)
- protocol_conditions: time post-induction: 4.5 h; library: site-saturation at positions 5, 18, 19, 20
Please use 1 whenever shrunken log2 fold change is not below 0.2, and -1 whenever it is.

Reference set, count: 4
RRIRFRPPRLPRPRPRPLLGPRP; -1
RRIRHRPPRLPRPRPRPTPNPRP; -1
RRIRIRPPRLPRPRPRPLSCPRP; -1
RRIRHRPPRLPRPRPRPPHAPRP; 1

Attention now turns to another entry.
Prompt: Given RRIRDRPPRLPRPRPRPGMNPRP , state whether its shrunken log2 fold change is at least 0.2.
Completion: -1

###

- System: Escherichia coli TOP10
- assay_summary: shrunken log2 fold change of peptide-encoding DNA abundance (4.5 h post-induction vs induction); higher = less antimicrobial activity (less host growth inhibition)
- protocol_conditions: time post-induction: 4.5 h; library: site-saturation at positions 5, 18, 19, 20
Threshold check on shrunken log2 fold change: at or above 0.1 gives condition met, strictly below gives condition not met.

Answered cases to consult:
RRIRIRPPRLPRPRPRPMDNPRP; condition not met
RRIRRRPPRLPRPRPRPIEGPRP; condition not met
RRIRKRPPRLPRPRPRPWGMPRP; condition met
RRIRSRPPRLPRPRPRPFKRPRP; condition not met
RRIRMRPPRLPRPRPRPWSPPRP; condition not met
RRIRFRPPRLPRPRPRPAVKPRP; condition not met
RRIRNRPPRLPRPRPRPPTEPRP; condition met
RRIRQRPPRLPRPRPRPFPKPRP; condition not met

Prompt: Reported shrunken log2 fold change at or above 0.1? RRIRKRPPRLPRPRPRPSDIPRP
Completion: condition met

Prompt: Could you verify whether the entry RRIRVRPPRLPRPRPRPPKGPRP shows shrunken log2 fold change of no less than 0.1?
Completion: condition met

Prompt: Does RRIRARPPRLPRPRPRPPSTPRP have a reported shrunken log2 fold change of at least 0.1?
Completion: condition met

Prompt: In plain terms: is recorded shrunken log2 fold change at least 0.1 for RRIRPRPPRLPRPRPRPDWRPRP ?
Completion: condition met

###

- Tested on: Escherichia coli TOP10
- assay_summary: shrunken log2 fold change of peptide-encoding DNA abundance (4.5 h post-induction vs induction); higher = less antimicrobial activity (less host growth inhibition)
- protocol_conditions: time post-induction: 4.5 h; library: site-saturation at positions 5, 18, 19, 20
Classify by measured shrunken log2 fold change: Satisfied if it is equal to or exceeds -0.002, Not satisfied if it is smaller.

Reference set (4 entries):
RRIRCRPPRLPRPRPRPKQQPRP; Satisfied
RRIRPRPPRLPRPRPRPAGGPRP; Satisfied
RRIRMRPPRLPRPRPRPLWSPRP; Not satisfied
RRIRYRPPRLPRPRPRPMFHPRP; Not satisfied

Prompt: Could you tell me if the measured shrunken log2 fold change of RRIRPRPPRLPRPRPRPPRYPRP reaches -0.002 or more?
Completion: Satisfied

###

shrunken log2 fold change values for the sequences below.
- Test system: Escherichia coli TOP10;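 note: peptides expressed intracellularly from a pBAD plasmid library in pooled LB shake-flask culture, induced with 0.3% L-arabinose, DNA abundance read by NGS, three biological replicates, DESeq2 with apeglm shrinkage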
- assay_summary: shrunken log2 fold change of peptide-encoding DNA abundance (4.5 h post-induction vs induction); higher = less antimicrobial activity (less host growth inhibition)
- protocol_conditions: time post-induction: 4.5 h; library: site-saturation at positions 5, 18, 19, 20
API note: the answer field is a bare number with no unit suffix.

RRIRIRPPRLPRPRPRPIHFPRP; -0.0704

Prompt: Given the sequence RRIRYRPPRLPRPRPRPKYIPRP , write its reported shrunken log2 fold change.
Completion: -0.665

Prompt: Give reported shrunken log2 fold change value for RRIRIRPPRLPRPRPRPRIPPRP
Completion: -0.324

Prompt: Return shrunken log2 fold change (reported value) for this sequence: RRIRNRPPRLPRPRPRPRQPPRP
Completion: 0.428

Prompt: Item RRIRMRPPRLPRPRPRPTYQPRP : provide shrunken log2 fold change
Completion: -0.063

Prompt: Determine its reported shrunken log2 fold change: RRIRLRPPRLPRPRPRPSNEPRP
Completion: -0.299

Prompt: Provide one value: measured shrunken log2 fold change of RRIRHRPPRLPRPRPRPNQIPRP
Completion: -0.327

Prompt: Identify shrunken log2 fold change associated with the sequence RRIRNRPPRLPRPRPRPVVHPRP
Completion: -0.165

Prompt: Please give the documented shrunken log2 fold change of RRIRKRPPRLPRPRPRPMTDPRP
Completion: 0.103
